Each recorded value in this set is attributed to patent US20230286969A1.

Would you mind telling me the reported CC50 of each entry?
Tested on: primary human hepatocyte (PHH)
Test: PHH natural infection assay, cytotoxicity (Cell Counting Kit-8)
Format: cell-based
Details: HBV-infected primary human hepatocytes, CCK8, end of treatment

Entry CS(=N)(=O)c1ccc(C(=O)NC2CC3(C2)CC(c2nc4cc(Cl)ccc4o2)C3)o1 (single isomer, unassigned) [Example 52-c] has what CC50?
> 100 µM

Entry CCC(=O)NS(=O)(=O)c1ccc(C(=O)NC2CC3(C2)CC(c2nc4cc(Cl)ccc4o2)C3)o1 (stereo not drawn) [Example 68] has what CC50?
> 100 µM

Entry N=S(=O)(c1ccc(C(=O)NC2CC3(C2)CC(c2nc4cc(Cl)ccc4o2)C3)o1)C1CC1 (single isomer, unassigned) [Example 53-a] has what CC50?
> 10 µM

Entry N=S(=O)(c1ccc(C(=O)NC2CC3(C2)CC(c2nc4cc(Cl)cnc4o2)C3)o1)C1CC1 (single isomer, unassigned) [Example 64-d] has what CC50?
> 10 µM

Entry NS(=O)(=O)c1ccc(C(=O)NC2CC3(C2)CC(c2nc4cc(Cl)ccc4o2)C3)o1 (single isomer, unassigned) [Example 29-b] has what CC50?
> 100 µM

Entry O=C(NC1CC2(C1)CC(c1nc3cc(Cl)cnc3o1)C2)c1ccc(S(=O)(=O)C2CC2)o1 (single isomer, unassigned) [Example 49-b] has what CC50?
91.5 µM
